Biological target: recombinant human HDAC1 (Homo sapiens, UniProt Q13547)
Construct: FLAG (C); made in house; host or cells: Hi5 insect cells
Sequence (Q13547 whole entry): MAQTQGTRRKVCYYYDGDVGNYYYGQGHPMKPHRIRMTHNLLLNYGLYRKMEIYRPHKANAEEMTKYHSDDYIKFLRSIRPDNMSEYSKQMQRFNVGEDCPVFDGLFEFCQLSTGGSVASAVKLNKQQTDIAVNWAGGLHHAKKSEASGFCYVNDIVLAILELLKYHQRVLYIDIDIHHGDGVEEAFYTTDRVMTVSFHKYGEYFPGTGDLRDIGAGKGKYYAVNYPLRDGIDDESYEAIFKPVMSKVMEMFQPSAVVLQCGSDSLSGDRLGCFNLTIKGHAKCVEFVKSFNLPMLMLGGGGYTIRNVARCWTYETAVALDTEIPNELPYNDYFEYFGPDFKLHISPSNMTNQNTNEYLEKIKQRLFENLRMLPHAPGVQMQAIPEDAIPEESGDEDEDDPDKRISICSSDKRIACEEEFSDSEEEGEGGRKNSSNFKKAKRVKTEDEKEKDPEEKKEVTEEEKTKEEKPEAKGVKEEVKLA
Assay: In vitro enzyme assay of recombinant HDAC1
Type: biochemical
Conditions: recombinant human HDAC1, acetylated histone H4 peptide; read-out: IC50 (nM) Test (a) (In vitro assay for the inhibition of HDAC1)
Description: HDAC inhibitors were screened against recombinant human HDAC1 produced in Hi5 insect cells. The enzyme was cloned with a FLAG tag at the C-terminal of the gene and affinity purified using Anti-FLAG M2 agarose from SIGMA (A2220). The deacetylase assays were carried out in a 50 μl reaction. […] The reaction was allowed to develop for 30 minutes at ambient temperature and then fluorescence measured at an excitation wavelength of 360 nm and an emission wavelength of 465 nm. […]
Readout type: IC50 (nM)
Answer format: numeric, nM implied, no suffix.

Note to self: IC50 recorded for `CC(C)NCc1cnc(-c2ccc(C(=O)Nc3ccccc3N)cc2)s1` was 29

Source: patent US20090312556A1
